- System: NCI/ADR-RES ovarian
- ASSAY PROCEDURE: NCI-60 one-dose screen, 48 h
- REPORTED CONDITIONS: 10 µM unless noted
This is part of a sample that, as a whole, favours compounds with a hit. Of some 83,000 tested, about 20% had one in any assay. Active and inactive are the calls of the source. How the source made its calls: active means growth percent below 10; inactive means the rest.
Select the correct class. Options are active, inactive and nothing else.

Below are worked cases with known answers.
Kindly provide the recorded test outcome for the following compound: COc1ccccc1CNCCCN1C(=O)c2ccc3c4c(ccc(c24)C1=O)C(=O)N(CCCOCCCCOCCCN)C3=O
active

Hi, do you know how O=S1(=O)NCCN1CCNc1nccc(-c2c(-c3cccc(O)c3)nc3sccn23)n1 came out in this test?
inactive

Outcome? Oc1ccc(-c2nc3ccccc3s2)cc1CN(Cc1ccccn1)Cc1ccccn1
active

Next:
# lookup: test call for O=C(N/N=C\c1cc(Br)ccc1O)c1ccncc1
inactive

Answer briefly: the call reported for CS(=O)(=O)c1ccc(C(=O)N/N=C/c2ccc3c(c2)OCO3)cc1 in this assay.
inactive

Assay outcome for CC1=CC(=O)OC1C/C=C(\C)CCC1[C@@]2(C)CCC[C@@](C)(C(=O)O)C2CC[C@@]1(C)O (some centres not stated) : what was it?
inactive

So what was the verdict on Nc1c(C(=O)Nc2cccc(Cl)c2)sc2nc3c(cc12)C(=O)CCC3 in this test?
inactive

Would you mind telling me which call this test gave CCN(CC)CC(=O)Nc1c(C)cc(C(=O)NN)cc1C ?
inactive

Hi team, can someone confirm the assay call for O=C(NCCN1CCCCC1)n1cc(-c2ccncc2)c(-c2ccc(Cl)c(O)c2)n1 ?
inactive

// param item: FC(F)(F)c1cc(-c2nnc3n2N=C(Cl)CS3)cc(C(F)(F)F)c1 ; yields the recorded call
inactive

Assay outcome for COc1cc2c(c(OC)c1O)C(=O)C(OC)C(c1ccc(O)c(O)c1)O2 (configuration not stated) : what was it?
inactive

Tell me the recorded outcome of this test for Nc1cc(C(=O)O)cc(C(=O)O)c1 .
inactive

Outcome? CCCCOC(=O)c1cc(O)c(O)c(O)c1
inactive

Test call, this compound: COc1cc2c(cc1OC)-c1cc(OC)c(OC)cc1C(CN(C)C)C2 (configuration not stated)
inactive

Lab log entry: CC(C)CC1NC(=O)C(CC(C)C)N(CO)C1=O (configuration not stated) — outcome as called in the assay?
inactive

// return assay outcome for O=C(N/N=C/c1ccc([N+](=O)[O-])cc1)c1ccccc1Nc1ccnc(C(F)(F)F)c1
inactive

How was Cc1c(C(N)=O)sc2ncn(CC(=O)NN=C3CCCCC3)c(=O)c12 classified in this test?
inactive

Identify the outcome logged in this assay for the compound shown: Fc1ccc(-c2cnc3nonc3n2)c(F)c1
inactive
